Compiled literature IC50, tested on UniProt:O75907.

| compound | study.system | IC50 |
| --- | --- | --- |
| CCCc1cc(CCC)c(C(=O)NCCNC(=O)c2cn(-c3ccccc3)nc2C(F)(F)F)cn1 | UniProt:O75907 | 100 to 1000 nM |
| CC1(C)Oc2ncnc(N)c2N=C1c1ccc([C@H]2CC[C@H](CCN3CCCC3)CC2)cc1 | UniProt:O75907 | > 100 nM |
| Cc1nc(N)c2c(n1)OC(C)(C)C(c1ccc([C@H]3CC[C@H](Cc4cc(O)[nH]n4)CC3)c(Cl)c1)=N2 | UniProt:O75907 | < 10 nM |
| CCCCc1ccc(C(=O)NCCNC(=O)c2cn(-c3ccccc3)nc2C(F)(F)F)nc1 | UniProt:O75907 | 100 to 1000 nM |
| Cc1nc(N)c2c(n1)OC(C)(C)C(c1ccc([C@H]3CC[C@H](Cc4nc(=O)s[nH]4)CC3)cc1)=N2 | UniProt:O75907 | 10 to 100 nM |
| CCOC(=O)C=C1CCC(c2ccc(C3=Nc4c(N)ncnc4OC3(C)C)cc2)CC1 (stereo not shown) | UniProt:O75907 | > 100 nM |
| CC1(C)Oc2ncnc(N)c2N=C1c1ccc([C@H]2CC[C@H](Cc3cnc(-c4ccccc4)[nH]3)CC2)cc1 | UniProt:O75907 | 10 to 100 nM |
| CCCNC(=O)N1CCN(C[C@H]2CC[C@H](c3ccc(C4=Nc5c(N)ncnc5OC4(C)C)cc3)CC2)CC1 | UniProt:O75907 | 10 to 100 nM |
| CC1(C)Oc2ncnc(N)c2N=C1c1ccc([C@H]2CC[C@H](CC(=O)N3CCC(CCO)CC3)CC2)cc1 | UniProt:O75907 | 10 to 100 nM |
| O=C(O)CC1(CC(F)(F)F)CCc2cc(-c3ccc(Nc4ccc(F)c(F)c4)cn3)ccc2C1=O (single isomer, unassigned) | UniProt:O75907 | ≤ 100 nM |
